Entry source: PubChem BioAssay AID652253

tested-on: Proteinase-activated receptor 4 (Homo sapiens)
assay-protocol: potency of PAR4-AP response blockers – cell-based, CRC, dose response (AID 652253)
condition-parameters: cells, PAR4-AP induced response, antagonist CRC
Active and inactive are the calls of the source. No rule for the calls is given here.
Outcomes: active, inactive

[[record]]
test_smiles = "COc1ccc(-c2cn(Cc3ccccc3)c3ccccc23)cn1"
tested_on = "Proteinase-activated receptor 4 (Homo sapiens)"
assigned_category = "inactive"

[[record]]
test_smiles = "COc1ccc(-c2cn(Cc3cccc(Cl)c3)c3ccccc23)cn1"
tested_on = "Proteinase-activated receptor 4 (Homo sapiens)"
assigned_category = "inactive"

[[record]]
test_smiles = "COc1ccc(-c2cn(Cc3cccc(F)c3)c3ccccc23)cn1"
tested_on = "Proteinase-activated receptor 4 (Homo sapiens)"
assigned_category = "inactive"

[[record]]
test_smiles = "COc1ccc(-c2cn(Cc3cccc(Br)c3)c3ccccc23)cn1"
tested_on = "Proteinase-activated receptor 4 (Homo sapiens)"
assigned_category = "inactive"

[[record]]
test_smiles = "COc1ccc(COc2ccc(C(=O)NCCC(C)(C)C)cc2)cc1"
tested_on = "Proteinase-activated receptor 4 (Homo sapiens)"
assigned_category = "active"

